This listing pairs compounds with measured Dmax (%) H1975 # 28 DTC.
Tested on: EGFR Del19/T790M/C797S (H1975-clone #28)
Experiment: EGFR degradation HTRF assay, H1975-clone #28 DTC cells
Type: cell-based
Settings: H1975 # 28 DTC cells; maximum percentage of inhibition (degradation)
Note: unit % is implicit; provide only the numeric part.

These solved cases illustrate the format of a correct answer.
{"compound": "CCOc1cc(N2CCC(N3CCN(CCc4cccc5c4C(C)(C)C(=O)N5C4CCC(=O)NC4=O)CC3)CC2)c(CC)cc1Nc1ncc(Br)c(Nc2ccc3c(=O)n(CC)ncc3c2P(C)(C)=O)n1 (centres unmarked) [Example 501]", "measured": 85.93}
{"compound": "CCc1cc(Nc2ncc(Br)c(Nc3ccc4nc(C)c(F)cc4c3P(C)(C)=O)n2)c(OC)cc1N1CCC(N2CCN(C(=O)[C@@H]3CCN(c4cc(F)c([C@H]5CCC(=O)NC5=O)c(F)c4)C3)CC2)CC1 [Example 488]", "measured": 84.91}
{"compound": "CCOc1cc(N2CCC(N3CCN(CCc4cc(C)cc5c4oc(=O)n5C4CCC(=O)NC4=O)CC3)CC2)c(CC)cc1Nc1ncc(Br)c(Nc2ccc3nc(CC)ccc3c2P(C)(C)=O)n1 (centres unmarked) [Example 469]", "measured": 81.32}
{"compound": "CCc1cc(Nc2ncc(Br)c(Nc3ccc4nc(C)ccc4c3P(C)(C)=O)n2)c(OC)cc1N1CCC(N2CCN(C(=O)Cc3cc(F)c([C@H]4CCC(=O)NC4=O)c(F)c3)CC2)CC1 [Example 670]", "measured": 83.95}

Write down Dmax (%) H1975 # 28 DTC measured for item Cc1ccc2c(P(C)(C)=O)c(Nc3nc(Nc4cc(C)c(N5CCC(N6CCN(CCc7cccc8c7n(C)c(=O)n8C7CCC(=O)NC7=O)CC6)CC5)cc4OC4CC4)ncc3Br)ccc2n1 (centres unmarked) [Example 602] 77.98

* * *

Molecular target: EGFR (HCC827 cells) (Homo sapiens, UniProt P00533, DEL746-750)
Construct: endogenous in cells; host or cells: HCC827
Sequence (P00533 with tags, fused parts or gaps DEL746-750): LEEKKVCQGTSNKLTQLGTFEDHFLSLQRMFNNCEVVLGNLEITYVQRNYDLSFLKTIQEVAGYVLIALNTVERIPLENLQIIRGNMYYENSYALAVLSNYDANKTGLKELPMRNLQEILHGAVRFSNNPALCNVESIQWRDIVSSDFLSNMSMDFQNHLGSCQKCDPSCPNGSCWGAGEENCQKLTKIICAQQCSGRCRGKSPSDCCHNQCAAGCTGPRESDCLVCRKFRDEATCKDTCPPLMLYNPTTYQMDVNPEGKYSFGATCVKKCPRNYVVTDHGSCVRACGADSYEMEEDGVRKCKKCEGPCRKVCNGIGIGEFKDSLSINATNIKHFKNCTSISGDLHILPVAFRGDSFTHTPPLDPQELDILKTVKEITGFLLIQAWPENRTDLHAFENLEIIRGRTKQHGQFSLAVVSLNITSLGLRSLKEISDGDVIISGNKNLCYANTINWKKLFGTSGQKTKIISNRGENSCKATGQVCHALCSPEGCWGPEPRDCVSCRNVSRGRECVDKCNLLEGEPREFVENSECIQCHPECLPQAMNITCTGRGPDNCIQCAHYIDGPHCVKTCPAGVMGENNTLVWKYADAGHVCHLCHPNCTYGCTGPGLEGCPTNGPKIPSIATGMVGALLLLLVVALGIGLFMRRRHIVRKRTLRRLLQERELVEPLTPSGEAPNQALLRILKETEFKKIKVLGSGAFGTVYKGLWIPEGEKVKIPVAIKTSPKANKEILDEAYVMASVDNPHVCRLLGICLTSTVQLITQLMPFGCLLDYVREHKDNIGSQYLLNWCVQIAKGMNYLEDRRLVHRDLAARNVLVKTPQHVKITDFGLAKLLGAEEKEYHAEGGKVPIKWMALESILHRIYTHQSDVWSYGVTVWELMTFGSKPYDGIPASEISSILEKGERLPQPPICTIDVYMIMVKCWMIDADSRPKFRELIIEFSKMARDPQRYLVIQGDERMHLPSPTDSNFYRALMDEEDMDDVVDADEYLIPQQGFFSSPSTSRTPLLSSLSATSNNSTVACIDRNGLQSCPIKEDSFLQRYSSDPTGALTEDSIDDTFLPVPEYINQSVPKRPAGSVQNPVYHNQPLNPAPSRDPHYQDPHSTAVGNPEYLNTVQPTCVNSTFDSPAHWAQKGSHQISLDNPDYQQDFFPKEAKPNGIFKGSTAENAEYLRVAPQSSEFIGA
Assay: EGFR degradation HTRF assay, HCC827 cells
Assay type: cell-based
Details: HCC827, 16h treatment, maximum percentage of degradation
This listing pairs compounds with measured Dmax.
Note: unit % is implicit; provide only the numeric part.

These solved cases illustrate the format of a correct answer.
{"compound": "COc1cc(N2CCN(CC3CCN(c4ccc(C5CCC(=O)NC5=O)cc4)CC3)CC2)ccc1Nc1ncc(Cl)c(Nc2ccccc2P(C)(C)=O)n1 (centres unmarked)", "Dmax (%)": 67.2}
{"compound": "COc1cc(N2CCN(CCC3CCN(c4ccc(C5CCC(=O)NC5=O)cc4)CC3)CC2)c(C)cc1Nc1ncc(Br)c(Nc2ccc3nccnc3c2P(C)(C)=O)n1 (centres unmarked)", "Dmax (%)": 81.4}
{"compound": "COc1cc(N2CCC(N3CCN(C(=O)C4CCN(CC5CCN(c6ccc7c(c6)C(=O)N(C6CCC(=O)NC6=O)C7=O)CC5)CC4)CC3)CC2)ccc1Nc1ncc(Cl)c(Nc2ccccc2P(C)(C)=O)n1 (centres unmarked)", "Dmax (%)": 89.2}
{"compound": "CCc1cc(Nc2ncc(Br)c(Nc3ccc4c(=O)n(C)ncc4c3P(C)(C)=O)n2)c(OC)cc1N1CCC(N2CCN(CCC3CCN(c4cc(F)c(C5CCC(=O)NC5=O)c(F)c4)CC3)CC2)CC1 (centres unmarked)", "Dmax (%)": 89}

Now look at this entry.
Write down Dmax measured for item COc1cc(N2CCC(N3CCN(CCCC4CN(c5ccc6c(c5)C(=O)N(C5CCC(=O)NC5=O)C6=O)C4)CC3)CC2)ccc1Nc1ncc(Cl)c(Nc2ccccc2P(C)(C)=O)n1 (centres unmarked) 76

* * *

Test system: EGFR Del19/T790M/C797S (H1975-clone #28)
Assay: EGFR degradation HTRF assay, H1975-clone #28 DTC cells
Format: cell-based
Details: H1975 # 28 DTC cells; maximum percentage of inhibition (degradation)
readout: Dmax (%) H1975 # 28 DTC
Note: unit % is implicit; provide only the numeric part.

Write down Dmax (%) H1975 # 28 DTC measured for item CCOc1cc(N2CCC(N3CCN(CCCc4cccc5c4oc(=O)n5C4CCC(=O)NC4=O)CC3)CC2)c(CC)cc1Nc1ncc(Br)c(Nc2ccc3nc(CC)ccc3c2P(C)(C)=O)n1 (stereo not shown) 72.34

Write down Dmax (%) H1975 # 28 DTC measured for item CCc1ccc2c(P(C)(C)=O)c(Nc3nc(Nc4cc(CC)c(N5CCC(N6CCN(CC7CN(c8cc(F)cc9c8oc(=O)n9C8CCC(=O)NC8=O)C7)CC6)CC5)cc4OC)ncc3Br)ccc2n1 (stereo not shown) 85.59

Write down Dmax (%) H1975 # 28 DTC measured for item CCOc1cc(N2CCC(N3CCN(CCc4ccc5c(c4)oc(=O)n5C4CCC(=O)NC4=O)CC3)CC2)c(C)cc1Nc1ncc(Br)c(Nc2ccc3nc(CC)ccc3c2P(C)(C)=O)n1 (stereo not shown) 71.85

Write down Dmax (%) H1975 # 28 DTC measured for item CCc1ccc2c(P(C)(C)=O)c(Nc3nc(Nc4cc(CC)c(N5CCC(N6CCN(CCc7ccc8c(c7)oc(=O)n8C7CCC(=O)NC7=O)CC6)CC5)cc4OC)ncc3Br)ccc2n1 (stereo not shown) 78.48

Write down Dmax (%) H1975 # 28 DTC measured for item CCOc1cc(N2CCC(N3CCN(C(=O)[C@@H]4CCN(c5cccc6c5oc(=O)n6C5CCC(=O)NC5=O)C4)CC3)CC2)c(CC)cc1Nc1ncc(Br)c(Nc2ccc3nc(CC)ccc3c2P(C)(C)=O)n1 (stereo partly shown) [Example 445] 79.2

Write down Dmax (%) H1975 # 28 DTC measured for item CCOc1cc(N2CCC(N3CCN(CCCc4cc(F)cc5c4oc(=O)n5C4CCC(=O)NC4=O)CC3)CC2)c(CC)cc1Nc1ncc(Br)c(Nc2ccc3nc(CC)ccc3c2P(C)(C)=O)n1 (stereo not shown) 75.32

Write down Dmax (%) H1975 # 28 DTC measured for item CCc1ccc2c(P(C)(C)=O)c(Nc3nc(Nc4cc(CC)c(N5CCC(N6CCN(CCCOc7cc(F)c([C@H]8CCC(=O)NC8=O)c(F)c7)CC6)CC5)cc4OC)ncc3Br)ccc2n1 76.3

Write down Dmax (%) H1975 # 28 DTC measured for item CCc1ccc2c(P(C)(C)=O)c(Nc3nc(Nc4cc(CC)c(N5CCC(N6CCN(CCc7c(F)ccc8c7oc(=O)n8C7CCC(=O)NC7=O)CC6)CC5)cc4OC)ncc3Br)ccc2n1 (stereo not shown) 79.58

Write down Dmax (%) H1975 # 28 DTC measured for item CCc1cc(Nc2ncc(Br)c(Nc3ccc4nc(C)ccc4c3P(C)(C)=O)n2)c(OC)cc1N1CCC(N2CCN(C(=O)C3CN(c4cccc5c4oc(=O)n5C4CCC(=O)NC4=O)C3)CC2)CC1 (stereo not shown) 74.38

Write down Dmax (%) H1975 # 28 DTC measured for item CCOc1cc(N2CCC(N3CCN(CC4CN(c5cccc6c5oc(=O)n6C5CCC(=O)NC5=O)C4)CC3)CC2)c(CC)cc1Nc1ncc(Br)c(Nc2ccc3nc(CC)ncc3c2P(C)(C)=O)n1 (stereo not shown) 84.02

* * *

This listing pairs compounds with measured Dmax.
Biological target: EGFR L858R/T790M/C797S (BaF3-LTC cells) (Homo sapiens, UniProt P00533, C797S/L858R/T790M)
Construct: expressed in transfected cells; host or cells: BaF3
Sequence (P00533 25-1210 T790M/C797S/L858R): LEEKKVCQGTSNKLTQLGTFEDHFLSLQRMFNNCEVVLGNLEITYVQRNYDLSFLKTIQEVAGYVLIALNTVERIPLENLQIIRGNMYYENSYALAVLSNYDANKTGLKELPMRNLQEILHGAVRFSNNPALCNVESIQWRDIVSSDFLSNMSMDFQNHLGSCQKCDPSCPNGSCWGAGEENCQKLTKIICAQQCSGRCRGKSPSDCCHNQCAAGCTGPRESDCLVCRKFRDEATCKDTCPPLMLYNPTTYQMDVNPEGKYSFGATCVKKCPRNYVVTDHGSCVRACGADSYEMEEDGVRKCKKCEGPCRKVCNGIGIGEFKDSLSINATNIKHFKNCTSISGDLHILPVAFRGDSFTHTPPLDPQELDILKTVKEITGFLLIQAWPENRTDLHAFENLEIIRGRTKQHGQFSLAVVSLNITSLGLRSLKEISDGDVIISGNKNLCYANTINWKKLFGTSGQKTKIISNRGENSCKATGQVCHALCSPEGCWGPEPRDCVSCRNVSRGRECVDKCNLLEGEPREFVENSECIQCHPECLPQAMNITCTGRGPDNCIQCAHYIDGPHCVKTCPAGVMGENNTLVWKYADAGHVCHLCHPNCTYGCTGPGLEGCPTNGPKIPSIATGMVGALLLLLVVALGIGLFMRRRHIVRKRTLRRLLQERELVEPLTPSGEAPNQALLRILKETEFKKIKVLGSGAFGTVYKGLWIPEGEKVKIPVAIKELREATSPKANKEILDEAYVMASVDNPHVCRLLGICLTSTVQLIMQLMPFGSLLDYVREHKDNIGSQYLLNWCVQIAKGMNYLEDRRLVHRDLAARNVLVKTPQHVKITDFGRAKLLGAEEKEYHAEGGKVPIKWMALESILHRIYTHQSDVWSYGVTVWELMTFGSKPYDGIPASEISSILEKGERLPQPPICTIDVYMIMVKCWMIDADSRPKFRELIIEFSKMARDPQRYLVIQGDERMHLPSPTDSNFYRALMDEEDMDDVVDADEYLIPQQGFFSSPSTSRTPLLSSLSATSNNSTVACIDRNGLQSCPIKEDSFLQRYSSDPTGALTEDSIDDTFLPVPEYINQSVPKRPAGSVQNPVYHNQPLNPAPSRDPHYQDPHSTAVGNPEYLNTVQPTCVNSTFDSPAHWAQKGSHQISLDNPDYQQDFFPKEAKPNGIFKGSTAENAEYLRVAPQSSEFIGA
Experiment: EGFR degradation HTRF assay, BaF3-LTC cells
Type: cell-based
Settings: BaF3-LTC cells; maximum percentage of inhibition (degradation); read-out: Dmax (%) BaF3-LTC
Note: unit % is implicit; provide only the numeric part.

{"compound": "CCOc1cc(N2CCC(N3CCN(CCc4cc(F)c(C5CCC(=O)NC5=O)c(F)c4)CC3)CC2)c(CC)cc1Nc1ncc(Br)c(Nc2ccc3nc(C)ccc3c2P(C)(C)=O)n1 (stereo not shown)", "unit.symbol": "%", "measured": 88.7}
{"compound": "Cc1ccc2c(P(C)(C)=O)c(Nc3nc(Nc4cc(C)c(N5CCC(N6CCN(CCc7cccc8c7n(C)c(=O)n8C7CCC(=O)NC7=O)CC6)CC5)cc4OC4CC4)ncc3Br)ccc2n1 (stereo not shown)", "unit.symbol": "%", "measured": 93}
{"compound": "CCOc1cc(N2CCC(N3CCN(CCc4ccc5c(c4)oc(=O)n5C4CCC(=O)NC4=O)CC3)CC2)c(CC)cc1Nc1ncc(Br)c(Nc2cc(F)c3nc(CC)ccc3c2P(C)(C)=O)n1 (stereo not shown)", "unit.symbol": "%", "measured": 84.8}
{"compound": "CCOc1cc(N2CCC(N3CCN(CCc4cccc5c4n(C4CC4)c(=O)n5C4CCC(=O)NC4=O)CC3)CC2)c(CC)cc1Nc1ncc(Br)c(Nc2ccc3nc(CC)ccc3c2P(C)(C)=O)n1 (stereo not shown)", "unit.symbol": "%", "measured": 90.2}
{"compound": "CCOc1cc(N2CCC(N3CCN(CCc4c(C(F)(F)F)ccc5c4oc(=O)n5C4CCC(=O)NC4=O)CC3)CC2)c(CC)cc1Nc1ncc(Br)c(Nc2ccc3nc(CC)ccc3c2P(C)(C)=O)n1 (stereo not shown)", "unit.symbol": "%", "measured": 85.6}

Write down Dmax measured for item CCc1ccc2c(P(C)(C)=O)c(Nc3nc(Nc4cc(CC)c(N5CCC(N6CCN(CCc7cccc8c7n(C)c(=O)n8C7CCC(=O)NC7=O)CC6)CC5)cc4OC)ncc3Br)ccc2n1 (stereo not shown) 95.4

Write down Dmax measured for item CCc1cc(Nc2ncc(Br)c(Nc3ccc4nc(C)ccc4c3P(C)(C)=O)n2)c(OC)cc1N1CCC(N2CCN(CCOc3cccc4c3n(C)c(=O)n4C3CCC(=O)NC3=O)CC2)CC1 (stereo not shown) 95.9

The origin of these recorded values is patent US20230265116A1.
